- Tested on: carrageenin-induced rat paw edema
- assay.procedure: Carrageenin-induced rat paw edema test
- Assay type: in vivo, rat (female CFY)
- conditions.used: Rattus norvegicus, po; 50 mg/kg (p.o.), 3 hours; read-out: Percentage of the protective effect
Where a name gives a salt, the structure may show the parent alone.
Binarize change in vivo at 50 mg/kg at -20%; below is Y, at or above is N.

Prompt: Is the reported change in vivo at 50 mg/kg for COc1cc2c(cc1OC)C(=C(C#N)SCC(O)CN1CCCC1)NCC2 (stereo not shown) [Example 12, hydrochloride hemihydrate] strictly below -20%?
Completion: N

Prompt: Dear reviewer, please state whether COc1cc2c(cc1OC)C(=C(C#N)SCC(O)CN1CCCCCC1)NCC2 (stereo not shown) [Example 19] has change in vivo at 50 mg/kg strictly beneath -20%.
Completion: Y

Prompt: Record COc1cc2c(cc1OC)C(=C(C#N)SCC(CN1CCOCC1)OC(=O)c1ccccc1)NCC2 (stereo not shown) [Example 25] : is its change in vivo at 50 mg/kg strictly below -20%?
Completion: N

Prompt: Is change in vivo at 50 mg/kg strictly under -20% for the entry CCOc1cc2c(cc1OCC)C(=C(C#N)SCC(O)CN(CC)CC)NCC2 (stereo not shown) [Example 2, hydrochloride] ?
Completion: Y

Prompt: is_below(change in vivo at 50 mg/kg, -20%) for N#CC(SCC(O)CN1CCOCC1)=C1NCCc2ccccc21 (stereo not shown) [Example 16, hydrochloride hemihydrate] ?
Completion: Y

Prompt: Confirm or reject: change in vivo at 50 mg/kg of COc1cc2c(cc1OC)C(=C(C#N)SCC(O)CNC(C)C)NCC2 (stereo not shown) [Example 6, hydrochloride hemihydrate] lies strictly below -20%
Completion: N

Prompt: Quick check: change in vivo at 50 mg/kg of COc1cc2c(cc1OC)C(=C(C#N)SCC(O)CN1CCOCC1)NCC2 (stereo not shown) [Example 17, hydrochloride] under -20%?
Completion: N

====

- assay.procedure: LD50 on mouse
- conditions.used: in vivo, po, male mouse, read-out: LD50 p.o.
assay.metric: LD50 (mg/kg)
Return type: number; implicit unit mg/kg.

Prompt: Quick check: LD50 of CCOc1cc2c(cc1OCC)C(=C(C#N)SCC(O)CN1CCOCC1)NCC2 (stereo not shown) ?
Completion: 1200

====

- Tested on: carrageenin-induced rat paw edema
- assay.procedure: Carrageenin-induced rat paw edema test
- Type: in vivo, rat (female CFY)
- conditions.used: Rattus norvegicus, po; 50 mg/kg (p.o.), 3 hours; read-out: Percentage of the protective effect
Where a name gives a salt, the structure may show the parent alone.
Response field label: string, one of MET (change in vivo at 50 mg/kg strictly below -20%) or NOT MET.

Prompt: change in vivo at 50 mg/kg strictly < -20% for this compound? COc1cc2c(cc1OC)C(=C(C#N)SCC(O)CNC1CCCCC1)NCC2 (centres unmarked) [Example 10, hydrochloride]
Completion: NOT MET

Prompt: Lab log: compare recorded change in vivo at 50 mg/kg with -20%; is it strictly lower for COc1cc2c(cc1OC)C(=C(C#N)SCC(CN1CCOCC1)OC(C)=O)NCC2 (centres unmarked) [Example 23, hydrochloride] ?
Completion: MET

Prompt: # TODO verify change in vivo at 50 mg/kg < -20% strictly for this compound: COc1cc2c(cc1OC)C(=C(C#N)SCC(O)CN(CCO)CCO)NCC2 (centres unmarked) [Example 4, hydrochloride dihydrate]
Completion: MET

Prompt: Hi there! Is change in vivo at 50 mg/kg for CCOc1cc2c(cc1OCC)C(=C(C#N)SCC(O)CN1CCOCC1)NCC2 (centres unmarked) [Example 18] below -20%, do you know?
Completion: MET

Prompt: Is the reported change in vivo at 50 mg/kg for CCOc1cc2c(cc1OCC)C(=C(C#N)SCC(O)CN(CCO)CCO)NCC2 (centres unmarked) [Example 5, hydrochloride] strictly below -20%?
Completion: NOT MET

Prompt: Determine if CCOc1cc2c(cc1OCC)C(=C(C#N)SCC(O)CN1CCCC1)NCC2 (centres unmarked) [Example 13, hydrochloride] shows change in vivo at 50 mg/kg strictly lower than -20%.
Completion: MET

====

- assay.procedure: LD50 on rat
- conditions.used: in vivo, iv, female rat
assay.metric: LD50 (mg/kg)
Could you give me the number in mg/kg? Just the number is fine.

Prompt: Entry under review: CCOc1cc2c(cc1OCC)C(=C(C#N)SCC(O)CN1CCOCC1)NCC2 (stereo not shown) [Example 18] . Reported LD50?
Completion: 133

====

- assay.procedure: LD50 on mouse
- conditions.used: in vivo, iv, male mouse, read-out: LD50 i.v.
assay.metric: LD50 (mg/kg)
Please respond with the number in mg/kg and leave the unit unwritten.

Prompt: Reported LD50 for CCOc1cc2c(cc1OCC)C(=C(C#N)SCC(O)CN1CCOCC1)NCC2 (stereo not shown) : what is it?
Completion: 166

====

- assay.procedure: LD50 on rat
- conditions.used: in vivo, iv, male rat
assay.metric: LD50 (mg/kg)
Answer format: numeric, mg/kg implied, no suffix.

Prompt: Endpoint output: LD50 of CCOc1cc2c(cc1OCC)C(=C(C#N)SCC(O)CN1CCOCC1)NCC2 (stereo not shown) . Value?
Completion: 91.4
